- testedOn: CFTR ΔF508 mutant (Homo sapiens, UniProt P13569, DEL508-508)
- Construct: expressed in transfected cells; host or cells: CFBE41o- (adenoviral transduction)
- Sequence (P13569 with tags, fused parts or gaps DEL508-508): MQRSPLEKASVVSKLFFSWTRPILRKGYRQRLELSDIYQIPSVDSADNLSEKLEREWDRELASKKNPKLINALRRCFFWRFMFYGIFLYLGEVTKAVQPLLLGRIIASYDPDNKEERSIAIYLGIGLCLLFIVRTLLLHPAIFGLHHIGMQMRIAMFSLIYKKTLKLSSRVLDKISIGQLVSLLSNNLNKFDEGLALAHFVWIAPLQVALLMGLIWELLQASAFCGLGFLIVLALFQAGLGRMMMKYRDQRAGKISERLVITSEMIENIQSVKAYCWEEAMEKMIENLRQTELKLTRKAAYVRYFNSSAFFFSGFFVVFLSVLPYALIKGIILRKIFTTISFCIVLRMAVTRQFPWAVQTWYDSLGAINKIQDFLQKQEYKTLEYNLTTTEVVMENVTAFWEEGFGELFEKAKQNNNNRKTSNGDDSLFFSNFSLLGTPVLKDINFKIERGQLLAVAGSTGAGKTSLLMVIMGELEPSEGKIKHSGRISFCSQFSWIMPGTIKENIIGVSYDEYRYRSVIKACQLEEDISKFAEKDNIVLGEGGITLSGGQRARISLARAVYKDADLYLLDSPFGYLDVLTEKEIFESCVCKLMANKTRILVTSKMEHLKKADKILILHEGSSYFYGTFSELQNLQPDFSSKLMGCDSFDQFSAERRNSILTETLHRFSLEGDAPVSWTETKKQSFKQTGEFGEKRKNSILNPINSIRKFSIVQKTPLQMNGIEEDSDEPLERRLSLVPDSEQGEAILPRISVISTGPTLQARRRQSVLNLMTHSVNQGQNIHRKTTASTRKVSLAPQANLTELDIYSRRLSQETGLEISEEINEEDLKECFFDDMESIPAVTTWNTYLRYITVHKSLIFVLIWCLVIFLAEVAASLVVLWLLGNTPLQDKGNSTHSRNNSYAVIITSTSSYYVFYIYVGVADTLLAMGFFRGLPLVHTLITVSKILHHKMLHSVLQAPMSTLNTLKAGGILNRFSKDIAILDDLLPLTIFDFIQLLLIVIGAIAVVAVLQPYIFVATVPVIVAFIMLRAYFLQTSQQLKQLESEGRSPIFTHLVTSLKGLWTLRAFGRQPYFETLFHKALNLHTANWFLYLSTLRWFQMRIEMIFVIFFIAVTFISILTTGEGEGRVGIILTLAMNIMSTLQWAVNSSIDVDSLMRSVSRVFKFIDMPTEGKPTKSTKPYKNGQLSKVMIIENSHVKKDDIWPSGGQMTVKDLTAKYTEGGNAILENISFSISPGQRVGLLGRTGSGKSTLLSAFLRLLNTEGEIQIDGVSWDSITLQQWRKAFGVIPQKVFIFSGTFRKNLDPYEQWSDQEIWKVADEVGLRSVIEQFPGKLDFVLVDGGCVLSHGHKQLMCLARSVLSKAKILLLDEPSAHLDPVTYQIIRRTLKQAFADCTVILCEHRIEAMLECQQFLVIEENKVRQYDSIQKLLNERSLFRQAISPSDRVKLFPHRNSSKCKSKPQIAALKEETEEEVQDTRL
- testDescription: YFP-halide influx assay for the CFTR-ΔF508 mutation (384 well, FDSS/μCell)
- Type: cell-based
- settings: CFBE41o- cells, CFTR-ΔF508, 1×D-PBS, fluorescence after 36 seconds
Rule: EC50 below 60 nM gives TRUE, anything at or above gives FALSE.

Previously resolved entries follow.
{"molecule": "CCc1cc(C(=O)Nc2sc(S(=O)(=O)c3ccccc3F)cc2C(N)=O)n[nH]1", "testedOn": "CFTR ΔF508 mutant (Homo sapiens, UniProt P13569, DEL508-508)", "categoryLabel": "FALSE"}
{"molecule": "CN(C1CC1)S(=O)(=O)c1cc(C(N)=O)c(NC(=O)c2ccccc2C(F)(F)F)s1", "testedOn": "CFTR ΔF508 mutant (Homo sapiens, UniProt P13569, DEL508-508)", "categoryLabel": "FALSE"}
{"molecule": "CC(C)Oc1cc(F)ccc1S(=O)(=O)c1cc(C(N)=O)c(NC(=O)C(C)(C)O)s1", "testedOn": "CFTR ΔF508 mutant (Homo sapiens, UniProt P13569, DEL508-508)", "categoryLabel": "FALSE"}
{"molecule": "CC(C)(O)C(=O)Nc1sc(S(=O)(=O)c2ccc(Cl)cc2)cc1C(N)=O", "testedOn": "CFTR ΔF508 mutant (Homo sapiens, UniProt P13569, DEL508-508)", "categoryLabel": "FALSE"}
{"molecule": "CC1CN(S(=O)(=O)c2cc(C(N)=O)c(NC(=O)c3ccccc3C(F)(F)F)s2)C(C)(C)CO1 (centres unmarked)", "testedOn": "CFTR ΔF508 mutant (Homo sapiens, UniProt P13569, DEL508-508)", "categoryLabel": "FALSE"}

API: query returns whether the molecule falls strictly under 60 nM in EC50. Query: `CC(C)(O)C(=O)Nc1sc(S(=O)(=O)c2ccc(Cl)cc2OC(F)(F)F)cc1C(N)=O`
TRUE

Next up: `NC(=O)c1cc(S(=O)(=O)c2ccc(OC(F)(F)F)cc2)sc1NC(=O)C1(CO)CC1`
TRUE

Repeat for the following molecule: `CC(C)Oc1ccc(S(=O)(=O)c2cc(C(N)=O)c(NC(=O)C(C)(C)O)s2)c(Cl)c1`
TRUE

Try the molecule `C[C@H](O)C(=O)Nc1sc(S(=O)(=O)c2ccc(OC(F)(F)F)cc2F)cc1C(N)=O`
TRUE

Similarly, `CC(C)(O)C(=O)Nc1sc(S(=O)(=O)c2ccc(OC(F)(F)F)c(F)c2F)cc1C(N)=O` ?
TRUE

Here is the next molecule: CC(CO)C(=O)Nc1sc(S(=O)(=O)c2ccc(Cl)cc2)cc1C(N)=O (centres unmarked)
TRUE

And the next one, NC(=O)c1cc(S(=O)(=O)c2ccc(F)cc2)sc1NC(=O)C1CCCC1O (centres unmarked) ?
FALSE

Next molecule up: CC(CO)C(=O)Nc1sc(S(=O)(=O)c2ccc(F)cc2C(F)(F)F)cc1C(N)=O (centres unmarked)
TRUE

Now give it for `CC(C)(O)C(=O)Nc1sc(S(=O)(=O)c2ccc(C(F)(F)F)nn2)cc1C(N)=O` too.
FALSE

Also `COc1cnc(C(F)(F)F)nc1S(=O)(=O)c1cc(C(N)=O)c(NC(=O)C(C)(C)O)s1` ?
FALSE

Now give it for CC(O)C(=O)Nc1sc(S(=O)(=O)c2cc(F)ccc2CC(F)(F)F)cc1C(N)=O (centres unmarked) too.
TRUE

Next: `CN(c1ccc(F)cc1)S(=O)(=O)c1cc(C(N)=O)c(NC(=O)C2(O)CC2)s1`
TRUE

Proceed to CC(CO)C(=O)Nc1sc(S(=O)(=O)c2ccc(F)cc2)cc1C(N)=O (centres unmarked)
FALSE

Follow-up item: `Cc1cccc(C)c1S(=O)(=O)c1cc(C(N)=O)c(NC(=O)C2(O)CC2)s1`
TRUE

# iterate: `NC(=O)c1cc(S(=O)(=O)c2cc(F)ccc2Cl)sc1NC(=O)CO`
TRUE

----------
- testedOn: CFTR ΔF508 mutant (Homo sapiens, UniProt P13569, DEL508-508)
- Construct: expressed in transfected cells; host or cells: CFBE41o- (adenoviral transduction)
- testDescription: YFP-halide influx assay for the CFTR-ΔF508 mutation (384 well, FDSS/μCell)
- Type: cell-based
- settings: CFBE41o- cells, CFTR-ΔF508, 1×D-PBS, fluorescence after 36 seconds
measurementKind: EC50 (nM)
Answer in nM, number only, no unit symbol.

Here are 7 compounds together with their reported answers.
{"compound": "C[C@@H](O)C(=O)Nc1sc(S(=O)(=O)c2ccc(OC(F)(F)F)cc2)cc1C(N)=O", "valueUnits": "nM", "EC50": 22.8}
{"compound": "CC(C)(O)C(=O)Nc1sc(S(=O)(=O)c2cc(F)ccc2Cl)cc1C(N)=O", "valueUnits": "nM", "EC50": 5.5}
{"compound": "NC(=O)c1cc(S(=O)(=O)c2cc(F)ccc2CC(F)(F)F)sc1NC(=O)CO", "valueUnits": "nM", "EC50": 8}
{"compound": "CC(C)c1ccccc1S(=O)(=O)c1cc(C(N)=O)c(NC(=O)C2(O)CC2)s1", "valueUnits": "nM", "EC50": 29}
{"compound": "CCc1cc(C(=O)Nc2sc(S(=O)(=O)c3ccccc3)cc2C(N)=O)n[nH]1", "valueUnits": "nM", "EC50": 101}
{"compound": "CC(C)(O)C(=O)Nc1sc(S(=O)(=O)c2ccc(OC(F)(F)F)c(F)c2)cc1C(N)=O", "valueUnits": "nM", "EC50": 40.5}
{"compound": "Cc1ncccc1S(=O)(=O)c1cc(C(N)=O)c(NC(=O)C(C)O)s1 (centres unmarked)", "valueUnits": "nM", "EC50": 1060}

Read the next record carefully.
Field request: EC50 | item: `NC(=O)c1cc(S(=O)(=O)N2CCOCC2)sc1NC(=O)c1ccccc1C(F)(F)F`
146

----------
- testedOn: CFTR ΔF508 mutant (Homo sapiens, UniProt P13569, DEL508-508)
- Construct: expressed in transfected cells; host or cells: CFBE41o- (adenoviral transduction)
- testDescription: YFP-halide influx assay for the CFTR-ΔF508 mutation, PBS buffer (96 well)
- Assay type: cell-based
- settings: CFBE41o- cells, forskolin 10.67 μM
measurementKind: EC50 (nM)
// return numeric value only (unit: nM, not printed)

Examples from the recorded data:
{"structureSmilesString": "NC(=O)c1cc(S(=O)(=O)c2ccc(F)cc2)sc1NC(=O)c1cccnn1", "measurementKind": "EC50", "valueUnits": "nM", "assayValue": 2900}
{"structureSmilesString": "NC(=O)c1cc(S(=O)(=O)c2ccc(F)cc2)sc1NC(=O)c1ccccc1O", "measurementKind": "EC50", "valueUnits": "nM", "assayValue": 31.8}
{"structureSmilesString": "Cc1ccc(S(=O)(=O)c2cc(C(N)=O)c(NC(=O)C(C)(C)O)s2)cn1", "measurementKind": "EC50", "valueUnits": "nM", "assayValue": 367}
{"structureSmilesString": "CN(c1ccc(F)cc1)S(=O)(=O)c1cc(C(N)=O)c(NC(=O)C2(O)CC2)s1", "measurementKind": "EC50", "valueUnits": "nM", "assayValue": 46.4}

State the recorded EC50 for this entry: `CC(C)Oc1cc(F)ccc1S(=O)(=O)c1cc(C(N)=O)c(NC(=O)C(C)(C)O)s1`
41.1

What do we get for `CN(CC(C)(C)C)S(=O)(=O)c1cc(C(N)=O)c(NC(=O)c2cc[nH]n2)s1` ?
33.4

----------
- testedOn: CFTR-G178R (Homo sapiens, UniProt P13569, G178R)
- Sequence (P13569 whole entry G178R): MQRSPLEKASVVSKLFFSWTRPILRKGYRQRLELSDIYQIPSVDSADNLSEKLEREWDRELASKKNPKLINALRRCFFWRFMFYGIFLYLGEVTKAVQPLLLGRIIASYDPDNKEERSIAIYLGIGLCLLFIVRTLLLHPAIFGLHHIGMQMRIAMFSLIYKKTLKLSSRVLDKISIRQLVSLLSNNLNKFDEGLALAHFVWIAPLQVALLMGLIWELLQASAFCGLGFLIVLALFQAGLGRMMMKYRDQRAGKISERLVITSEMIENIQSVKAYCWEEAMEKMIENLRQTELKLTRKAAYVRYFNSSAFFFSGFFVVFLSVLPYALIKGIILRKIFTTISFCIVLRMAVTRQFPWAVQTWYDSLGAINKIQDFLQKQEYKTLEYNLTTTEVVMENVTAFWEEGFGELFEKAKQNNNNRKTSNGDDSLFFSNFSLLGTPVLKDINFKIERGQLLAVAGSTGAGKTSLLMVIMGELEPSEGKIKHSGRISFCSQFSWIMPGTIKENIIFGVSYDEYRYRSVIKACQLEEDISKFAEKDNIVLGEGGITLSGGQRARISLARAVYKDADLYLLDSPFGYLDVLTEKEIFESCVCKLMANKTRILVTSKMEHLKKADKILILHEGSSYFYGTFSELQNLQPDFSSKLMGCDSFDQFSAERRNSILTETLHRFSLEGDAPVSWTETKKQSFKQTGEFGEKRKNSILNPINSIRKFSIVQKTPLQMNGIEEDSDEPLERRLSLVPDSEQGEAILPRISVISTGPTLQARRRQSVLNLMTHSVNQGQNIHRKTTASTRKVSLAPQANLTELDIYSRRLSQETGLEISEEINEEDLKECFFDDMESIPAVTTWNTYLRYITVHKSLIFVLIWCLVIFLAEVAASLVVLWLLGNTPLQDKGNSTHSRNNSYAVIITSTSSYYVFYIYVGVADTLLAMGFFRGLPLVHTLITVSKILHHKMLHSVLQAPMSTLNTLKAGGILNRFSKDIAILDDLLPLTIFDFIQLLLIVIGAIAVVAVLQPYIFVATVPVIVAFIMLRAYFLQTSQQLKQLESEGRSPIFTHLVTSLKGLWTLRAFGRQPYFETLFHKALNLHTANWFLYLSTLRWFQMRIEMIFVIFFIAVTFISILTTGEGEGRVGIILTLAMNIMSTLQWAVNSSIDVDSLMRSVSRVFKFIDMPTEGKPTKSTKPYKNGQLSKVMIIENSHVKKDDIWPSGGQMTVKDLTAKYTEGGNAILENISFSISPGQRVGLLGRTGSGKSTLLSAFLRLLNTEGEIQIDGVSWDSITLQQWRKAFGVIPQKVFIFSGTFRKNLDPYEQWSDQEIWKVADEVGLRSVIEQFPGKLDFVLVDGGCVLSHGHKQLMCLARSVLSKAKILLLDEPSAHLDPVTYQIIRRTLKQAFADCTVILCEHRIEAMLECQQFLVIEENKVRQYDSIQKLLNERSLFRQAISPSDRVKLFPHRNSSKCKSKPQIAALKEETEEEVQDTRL
- testDescription: YFP-halide influx assay for the CFTR-G178R
measurementKind: log10 of EC50 (log10 of the value in nM)
Record value = log10 of EC50 given in nM.

Here's what some known entries look like.
{"molecule": "CC(C)(O)C(=O)Nc1sc(S(=O)(=O)c2ccc(C(F)(F)F)c(F)c2)cc1C(N)=O [Compound 422]", "assayValue": 1.81}
{"molecule": "CC(CO)C(=O)Nc1sc(S(=O)(=O)c2ccc(F)cc2Cl)cc1C(N)=O (stereo not shown) [Compound 360]", "assayValue": 2.09}
{"molecule": "CC(C)(O)C(=O)Nc1sc(S(=O)(=O)c2ccccc2Cl)cc1C(N)=O [Compound 290]", "assayValue": 2.32}
{"molecule": "CC(C)(O)C(=O)Nc1sc(S(=O)(=O)c2cccc(C(F)(F)F)n2)cc1C(N)=O [Compound 427]", "assayValue": 2.83}
{"molecule": "COc1cc(S(=O)(=O)c2cc(C(N)=O)c(NC(=O)C(C)(C)O)s2)c(OC(F)F)cn1 [Compound 418]", "assayValue": 1.16}

Lab note: need log10 of EC50 for CC(C)(O)C(=O)Nc1sc(S(=O)(=O)c2ccc(OC(F)F)cc2)cc1C(N)=O [Compound 380] on CFTR-G178R (Homo sapiens, UniProt P13569, G178R), anyone have it?
2.03

And for CC(C)(O)C(=O)Nc1sc(S(=O)(=O)c2ccc(C(F)(F)F)cc2F)cc1C(N)=O [Compound 376] ?
1.94

Another: COc1cc(C)cc(S(=O)(=O)c2cc(C(N)=O)c(NC(=O)C(C)(C)O)s2)c1 [Compound 416]
2.43

Now consider CC(C)(O)C(=O)Nc1sc(S(=O)(=O)c2cnc(C(F)(F)F)nc2)cc1C(N)=O [Compound 394] and answer again.
3.52

Cool, now CC(O)C(=O)Nc1sc(S(=O)(=O)c2cc(F)ccc2Cl)cc1C(N)=O (stereo not shown) [Compound 333]
2.79

Queued: CC(C)c1nn(C)cc1S(=O)(=O)c1cc(C(N)=O)c(NC(=O)C(C)(C)O)s1 [Compound 421]
3.20

Record: CC(C)(O)C(=O)Nc1sc(S(=O)(=O)c2ccc(C(F)(F)F)cn2)cc1C(N)=O [Compound 363]
1.84

Then this molecule: NC(=O)c1cc(S(=O)(=O)c2ccccc2)sc1NC(=O)c1cc[nH]n1 [Compound 83]
1.85

Subsequent entry: CC(C)(O)C(=O)Nc1sc(S(=O)(=O)c2c(Cl)cccc2Cl)cc1C(N)=O [Compound 298]
2.02

Then this molecule: COc1ccc(OC(F)(F)F)c(S(=O)(=O)c2cc(C(N)=O)c(NC(=O)C(C)(C)O)s2)c1 [Compound 373]
1.29

Can you check CC(C)(O)C(=O)Nc1sc(S(=O)(=O)c2cccc(C(F)(F)F)c2)cc1C(N)=O [Compound 408] next?
1.63
